Measured % inhibition of gametocyte viability values are reported for all entries that follow.
Tested on: Plasmodium falciparum NF54 stage IV/V gametocytes
Experiment: % inhibition of gametocyte viability (PrestoBlue); higher = more inhibition
Conditions: 5 µM; 48 h
Answer with a number only, understood to be in %.

* CN1C(=O)C(c2ccccc2)C(=O)N(c2ccccc2)c2cc(C(F)(F)F)ccc21 (centres undefined) | 14.5
* C[C@@]1(O)[C@H](O)[C@@H](CO)O[C@H]1n1ccc2c(N)ncnc21 | 2.26
* C[N+]1(C)CCCC(OC(=O)C(O)(c2ccccc2)c2ccccc2)C1 (centres undefined) | 9.34
* Nc1c(C(=O)NCc2ccco2)c2nc3ccccc3nc2n1CCN1CCCCC1 | 46.1
* COc1cc(C(C)(C)CCCC(C)C)cc(OC)c1OC | 6.64
* C[C@H]1CC[C@]2(NC1)O[C@H]1C[C@H]3[C@@H]4CC[C@H]5C[C@@H](O)CC[C@]5(C)[C@H]4CC[C@]3(C)[C@H]1[C@@H]2C | 28.1

What measured % inhibition of gametocyte viability is associated with "CCCCc1ccc(C(=O)O)nc1" on Plasmodium falciparum NF54 stage IV/V gametocytes? 2.97

###

Test system: Plasmodium berghei ANKA liver stage in HepG2-A16-CD81
Assay: % inhibition of liver stage parasite viability (luciferase); higher = more inhibition
Details: 5 µM; 48 h
value type: % inhibition of liver stage parasite viability (%)
Answer with a number only, understood to be in %.

Completed entries (count: 3):
- C[C@H]1CC[C@]2(NC1)O[C@H]1C[C@H]3[C@@H]4CC[C@H]5C[C@@H](O)CC[C@]5(C)[C@H]4CC[C@]3(C)[C@H]1[C@@H]2C: 32
- CCN1CCN(Cc2nc3ccc([N+](=O)[O-])cc3c(=O)n2-c2ccccc2F)CC1: 14.3
- CCCCc1ccc(C(=O)O)nc1: 19.3

Report % inhibition of liver stage parasite viability for "CC(C)Oc1cccc(NC(=O)c2ccccc2C(F)(F)F)c1" please. 23.7

Report % inhibition of liver stage parasite viability for "O=C(NC12CC3CC(CC(C3)C1)C2)c1cc2ccccc2[nH]1" please. 11.7

Report % inhibition of liver stage parasite viability for "COc1ccccc1CN[C@H]1C2CCN(CC2)[C@H]1C(c1ccccc1)c1ccccc1" please. 17.8

Report % inhibition of liver stage parasite viability for "Nc1c(C(=O)NCc2ccco2)c2nc3ccccc3nc2n1CCN1CCCCC1" please. 28.4

###

Test system: HepG2-A16-CD81
Test: % inhibition of HepG2 viability (CellTiter-Glo); higher = more toxic
Details: 5 µM
Measured % inhibition of HepG2 viability values are reported for all entries that follow.
State the value, then name its unit.

* O=C(NC12CC3CC(CC(C3)C1)C2)c1cc2ccccc2[nH]1 | 5.16%
* COc1cc(C(C)(C)CCCC(C)C)cc(OC)c1OC | 7.92%
* COC(=O)Nc1nc2ccccc2[nH]1 | -1.93%
* Nc1c(C(=O)NCc2ccco2)c2nc3ccccc3nc2n1CCN1CCCCC1 | 10.7%

Report % inhibition of HepG2 viability for "C[C@H]1CC[C@]2(NC1)O[C@H]1C[C@H]3[C@@H]4CC[C@H]5C[C@@H](O)CC[C@]5(C)[C@H]4CC[C@]3(C)[C@H]1[C@@H]2C" please. -5.8%

###

Tested on: Plasmodium falciparum NF54 asexual blood stage
Experiment: % inhibition of asexual blood stage proliferation (pLDH); higher = more inhibition
Conditions: 20 µM; 72 h
value type: % inhibition of asexual blood stage proliferation

Report % inhibition of asexual blood stage proliferation for "CC(C)Oc1cccc(NC(=O)c2ccccc2C(F)(F)F)c1" please. 9.83%

Report % inhibition of asexual blood stage proliferation for "C[C@@]1(O)[C@H](O)[C@@H](CO)O[C@H]1n1ccc2c(N)ncnc21" please. 43.2%

Report % inhibition of asexual blood stage proliferation for "COc1ccccc1CN[C@H]1C2CCN(CC2)[C@H]1C(c1ccccc1)c1ccccc1" please. 93%
